Where these numbers come from: patent US20240239788A1

- assayed system: KRAS protein containing G12D mutation (Homo sapiens (Human), UniProt P01116, G12D)
- Sequence (P01116 other isoform, or with tags, fused parts or gaps G12D (already in the parent)): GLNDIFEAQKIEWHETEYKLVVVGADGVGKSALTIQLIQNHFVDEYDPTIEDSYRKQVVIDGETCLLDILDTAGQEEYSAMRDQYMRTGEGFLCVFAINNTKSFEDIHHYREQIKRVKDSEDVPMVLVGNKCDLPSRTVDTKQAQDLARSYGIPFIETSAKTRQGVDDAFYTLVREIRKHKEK
- assay text: SOS-catalyzed nucleotide exchange assay (GNE), TR-FRET
- Type: biochemical
- test parameters: biotinylated KRAS G12D, SOS and GTP, 60-minute incubation
Counter-ions that a name gives are not always drawn.
Reported IC50 is given for each of the following compounds.

Some solved entries appear below for comparison.
What measured IC50 goes with C=C[C@@H]1[C@@H]2CC[C@@H](CN2)N1c1nc(OCC2(CN(C)C)CC2)nc2c(F)c(-c3cc(O)cc4ccccc34)c(F)cc12 [Example 6b] ? 426 nM

What measured IC50 goes with Cc1cc2[nH]ncc2c(-c2c(F)cc3c(N4C[C@H]5CC[C@@](C)(C4)N5)nc(OC[C@]4(CN(C)C)CC4(F)F)nc3c2F)c1C(F)(F)F (single isomer, unassigned) [Ex 76a] ? 12 nM

What measured IC50 goes with Nc1cc(-c2c(F)cc3c(N4CC5CCC(C4)N5)nc(OC[C@@]45CCCN4C[C@H](F)C5)nc3c2F)c2c(Cl)cccc2n1 (single isomer, unassigned) [Ex. 231b] ? 38.4 nM

What measured IC50 goes with C[C@]12CC[C@H](CN(c3nc(OCC4(N)CCOC4)nc4c(F)c(-c5cc(O)cc6ccccc56)c(F)cc34)C1)N2 (some centres unmarked) [Example 113, TFA] ? 697 nM

What measured IC50 goes with Cc1c(Cl)cc2[nH]nc(C)c2c1-c1c(F)cc2c(N3CC4CCC(C3)N4)nc(OCC3(CN4CC[C@@H](F)C4)CC3)nc2c1F (single isomer, unassigned) [Ex 71a] ? 18.9 nM

What measured IC50 goes with C[C@]12CC[C@H](CN(c3nc(OCC45CCCN4CCC(F)(F)C5)nc4c(F)c(-c5cc(O)cc6cccc(Cl)c56)c(F)cc34)C1)N2 (single isomer, unassigned) [Example 116a] ? 2890 nM

Further cases:
What measured IC50 goes with COCC1CCN(C[C@@]2(COc3nc(N4CC5CC[C@@](C)(C4)N5)c4cc(F)c(-c5cc(O)cc6cccc(Cl)c56)c(F)c4n3)CC2(F)F)C1 (single isomer, unassigned) [Ex. 214b] ? 180 nM

What measured IC50 goes with C[C@@]12CC[C@H](CN(c3nc(OC[C@@]45CCCN4C[C@H](F)C5)nc4c(F)c(-c5cc(O)cc6cccc(F)c56)c(F)cc34)C1)N2 (single isomer, unassigned) [Ex. 186b] ? 185 nM

What measured IC50 goes with CC(Oc1nc(N2C[C@H]3CC[C@@](C)(C2)N3)c2cc(F)c(-c3cc(O)cc4cccc(Cl)c34)c(F)c2n1)[C@]1(C)CCCN1 (mixture of isomers) [Ex. 164, TFA] ? 562 nM

What measured IC50 goes with C[C@]12CCC(CN(c3nc(OC[C@@]45CCCN4C[C@H](F)C5)nc4c(F)c(-c5cc(Cl)cc6cccc(Cl)c56)c(F)cc34)C1)N2 (single isomer, unassigned) [Ex. 184] ? 4720 nM

What measured IC50 goes with Cc1nc(N)cc(-c2c(F)cc3c(N4C[C@H]5CC[C@@](C)(C4)N5)nc(OCC4(CN5CCOCC5)CC4)nc3c2F)c1C(F)(F)F (single isomer, unassigned) [Ex. 139b] ? 287 nM

====

- assayed system: KRAS protein containing G12D mutation (Homo sapiens (Human), UniProt P01116, G12D)
- assay text: SOS-catalyzed nucleotide exchange assay (GNE), TR-FRET
- Assay type: biochemical
- test parameters: biotinylated KRAS G12D, SOS and GTP, 60-minute incubation
quantity kind: IC50
Just so you know, I need the unit written after the number.

What measured IC50 goes with Cc1nc(N)c(C)c(-c2c(F)cc3c(N4CC5CCC(C4)N5)nc(OC[C@@]45CCCN4C[C@H](F)C5)nc3c2F)c1C(F)(F)F (single isomer, unassigned) [Ex. 191a] ? 26.5 nM

What measured IC50 goes with C#Cc1cccc2cc(O)c(F)c(-c3c(F)cc4c(N5CC6CC[C@@](C)(C5)N6)nc(OC[C@@]56CCCN5C[C@H](F)C6)nc4c3F)c12 (single isomer, unassigned) [Ex. 192a] ? 1.17 nM

Next compound, IC50 to be filled in.
What measured IC50 goes with Cc1cc2[nH]ncc2c(C2Cc3nc(OC[C@]4(CN(C)C)CC4(F)F)nc(N4C[C@H]5CC[C@@](C)(C4)N5)c3C(=O)O2)c1C(F)(F)F (single isomer, unassigned) [Ex. 96b] ? 3.31 nM

====

- assayed system: KRAS protein containing G12D mutation (Homo sapiens (Human), UniProt P01116, G12D)
- assay text: SOS-catalyzed nucleotide exchange assay (GNE), TR-FRET
- Type: biochemical
- test parameters: biotinylated KRAS G12D, SOS and GTP, 60-minute incubation
Structures can show the parent of a compound that is named as a salt.
quantity kind: IC50
Just so you know, I need the unit written after the number.

What measured IC50 goes with CN(C[C@@]1(COc2nc(N3C[C@H]4CC[C@@](C)(C3)N4)c3cc(F)c(-c4cc(O)cc5cccc(Cl)c45)c(F)c3n2)CC1(F)F)[C@@H]1CCC[C@H]1O [Ex. 217b] ? 675 nM

What measured IC50 goes with Fc1cc2c(N3C[C@H]4CC[C@@H](C3)N4)nc(OC[C@@]34CCCN3C[C@H](F)C4)nc2c(F)c1-c1ccnc2cccc(Cl)c12 [Ex. 194] ? 1920 nM

What measured IC50 goes with C#Cc1c(F)ccc2ccc(F)c(-c3c(F)cc4c(N5CC6CC[C@@](C)(C5)N6)nc(OC[C@@]56CCCN5C[C@H](F)C6)nc4c3F)c12 (single isomer, unassigned) [246b] ? 165 nM

Further cases:
What measured IC50 goes with Cc1cc2[nH]nc(C)c2c(-c2c(F)cc3c(N4C[C@H]5CC[C@@](C)(C4)N5)nc(OC[C@]4(CN(C)C)CC4(F)F)nc3c2F)c1Cl [Ex 79] ? 72.5 nM

What measured IC50 goes with Fc1c(-c2ccc(F)c3scnc23)c(Cl)cc2c(N3CC4CCC(C3)N4)nc(OCC3(CN4CCOCC4)CC3)nc12 [Example 53] ? 2780 nM

What measured IC50 goes with Cc1cc2[nH]ncc2c(-c2c(F)cc3c(N4C[C@H]5CC[C@@](C)(C4)N5)nc(OC[C@@]45CCCN4C[C@H](F)C5)nc3c2F)c1C(F)(F)F [Ex 86] ? 0.723 nM

What measured IC50 goes with Cc1cc2[nH]nc(C)c2c(-c2c(F)cc3c(N4CC5CCC(C4)N5)nc(OC[C@@]45CCCN4C[C@H](F)C5)nc3c2F)c1C(F)(F)F (single isomer, unassigned) [Ex. 128b] ? 232 nM

What measured IC50 goes with C[C@]12CCC(CN(c3nc(OC[C@@]45CCCN4C[C@H](F)C5)nc4c(F)c(-c5cc(O)cc6cccc(C(F)F)c56)c(F)cc34)C1)N2 (single isomer, unassigned) [Ex. 181a] ? 3.97 nM

What measured IC50 goes with Cc1c(Cl)cc2[nH]nc(Cl)c2c1-c1c(F)cc2c(N3C[C@H]4CC[C@@](C)(C3)N4)nc(OCC3(CN4CC[C@@H](F)C4)CC3)nc2c1F [Ex 78] ? 1630 nM

What measured IC50 goes with Cc1cc(N)nc(-c2c(F)cc3c(N4CC5CC[C@@](C)(C4)N5)nc(OC[C@@]45CCCN4C[C@H](F)C5)nc3c2F)c1C(F)(F)F (single isomer, unassigned) [Ex. 200a] ? 72.9 nM

What measured IC50 goes with CN1C[C@H](F)C[C@H]1COc1nc(N2C[C@H]3CC[C@@](C)(C2)N3)c2cc(F)c(-c3cc(O)cc4ccccc34)c(F)c2n1 [Ex 70] ? 43.5 nM

What measured IC50 goes with Cc1cc(O)cc(-c2c(F)cc3c(N4CC5CCC(C4)N5)nc(OCC4(CN5CCOCC5)CC4)nc3c2F)c1SC(F)(F)F [Example 49] ? 184 nM

What measured IC50 goes with Nc1cc(-c2c(F)cc3c(N4CC5CCC(C4)N5)nc(OC[C@@]45CCCN4C[C@H](F)C5)nc3c2F)c2c(Cl)cccc2n1 (single isomer, unassigned) [Ex. 231a] ? 1490 nM

What measured IC50 goes with Oc1cc(-c2c(F)cc3c(N4CC5CCC(C4)N5)nc(OC[C@@]45CCCN4C[C@H](F)C5)nc3c2F)c2c(Cl)cccc2c1 (single isomer, unassigned) [Ex. 160a] ? 3.3 nM

What measured IC50 goes with Nc1nc2c(-c3c(Cl)cc4c(N5CC6CCC(C5)N6)nc(OC[C@@]56CCCN5C[C@H](F)C6)nc4c3F)c(F)cc(F)c2o1 (single isomer, unassigned) [Ex. 133a] ? 61.4 nM

What measured IC50 goes with O=c1oc(-c2cc(O)cc3ccccc23)cc2nc(OCC3(CN4CCOCC4)CC3)nc(N3CC4CCC(C3)N4)c12 [Ex. 95] ? 73.4 nM

What measured IC50 goes with CCc1cccc2cccc(-c3c(F)cc4c(N5C[C@H]6CC[C@@](C)(C5)N6)nc(OC[C@@]56CCCN5C[C@H](F)C6)nc4c3F)c12 [Ex. 141, TFA] ? 139 nM

What measured IC50 goes with CN(C)CC1(COc2nc(N3C[C@@H]4C[C@H](O)C(C)(C3)N4)c3cc(Cl)c(-c4cc(O)cc5ccccc45)c(F)c3n2)CC1 (stereo in doubt) [Example 41] ? 20.3 nM

What measured IC50 goes with C#Cc1cccc2cc(O)c(F)c(-c3c(F)cc4c(N5CC6CC[C@@](C)(C5)N6)nc(OC[C@@]56CCCN5C[C@H](F)C6)nc4c3F)c12 (single isomer, unassigned) [Ex. 192b] ? 37 nM

What measured IC50 goes with Nc1cnc(C(F)(F)F)c(-c2c(F)cc3c(N4C[C@H]5CC[C@@H](C4)N5)nc(OC[C@@]45CCCN4C[C@H](F)C5)nc3c2F)n1 [Ex. 134] ? 870 nM

What measured IC50 goes with CN(C)C[C@]1(COc2nc(N3CC4CCC(C3)N4)c3cc(Cl)c(-c4cc(O)cc5ccccc45)c(F)c3n2)CC1(F)F (atropisomer, axis not shown) [Example 11a] ? 24.1 nM

What measured IC50 goes with Nc1ccc2c(F)ccc(-c3c(Cl)cc4c(N5CC6CCC(C5)N6)nc(OCC5(CN6CCOCC6)CC5)nc4c3F)c2n1 [Example 52] ? 132 nM
